# measurement-notes: Cytotoxicity against human HEK cells
# Type: cell-based
# study-conditions: HEK293
IC50 less than 20 µM is T; IC50 greater than or equal to 20 µM is F.

>>> df
                     structure_smiles_string  cat
 0  Cc1cc(/C=C/c2ccc3cc(N(C)C)ccc3[n+]2C)c(C)n1-c1ccccn1    T
 1  CN(C)c1ccc2c(ccc(/C=C/c3c(Cl)cccc3Cl)[n+]2C)c1    T
 2  CN(C)c1ccc2c(ccc(/C=C/c3ccc[nH]3)[n+]2C)c1    F
 3  CN(C)c1ccc2c(ccc(/C=C/c3cc(Cl)cc(Cl)c3O)[n+]2C)c1    F
 4  Cc1cc(/C=C/c2ccc3cc(N(C)C)ccc3[n+]2C)c(C)n1-c1ccccc1    T
 5  CN(C)c1ccc2c(ccc(/C=C/c3ccccc3[N+](=O)[O-])[n+]2C)c1    F
 6  CN(C)c1ccc2c(ccc(/C=C/c3ccccc3)[n+]2C)c1    F
 7  CN(C)c1ccc2c(ccc(/C=C/c3ccc(Cl)c(Cl)c3)[n+]2C)c1    T
 8  CN(C)c1ccc2c(ccc(/C=C/c3c[nH]c4ccccc34)[n+]2C)c1    T
 9  CN(C)c1ccc2c(ccc(/C=C/c3cc(Cl)ccc3O)[n+]2C)c1    T
10  CN(C)c1ccc2c(ccc(/C=C/c3cccc(C#N)c3)[n+]2C)c1    F
11  CN(C)c1ccc2c(ccc(/C=C/c3ccc(C#N)cc3)[n+]2C)c1    F

---

# measurement-notes: Selectivity index, ratio of IC50 for CHOK1 cells to MIC for Mycobacterium tuberculosis H37Rv
# Format: toxicity
# study-conditions: hamster, CHO-K1 cells
measurement-kind: selectivity ratio

>>> df
                    structure_smiles_string   measurement_kind  modifier_sign  measured
0  CN(C)c1ccc2c(ccc(/C=C/c3ccc[nH]3)[n+]2C)c1  selectivity ratio              =      3.11
1  CN(C)c1ccc2c(ccc(/C=C/c3c(Cl)cccc3Cl)[n+]2C)c1  selectivity ratio              =      2.53
2  CN(C)c1ccc2c(ccc(/C=C/c3ccc(Cl)c(Cl)c3)[n+]2C)c1  selectivity ratio              =      3.98
3  CN(C)c1ccc2c(ccc(/C=C/c3ccc(C#N)cc3)[n+]2C)c1  selectivity ratio              =      1.05
4  Cc1cc(/C=C/c2ccc3cc(N(C)C)ccc3[n+]2C)c(C)n1-c1ccccn1  selectivity ratio              =      2.42
5  CN(C)c1ccc2c(ccc(/C=C/c3cc(Cl)cc(Cl)c3O)[n+]2C)c1  selectivity ratio              =      2.18
6  CN(C)c1ccc2c(ccc(/C=C/c3ccccc3)[n+]2C)c1  selectivity ratio              <      0.41

---

Catalogue of selectivity ratio readings, one per entry.
# measurement-notes: Selectivity index, ratio of IC50 for CHOK1 cells to MIC for Mycobacterium tuberculosis H37Rv
# Assay type: toxicity
# study-conditions: hamster, CHO-K1 cells
measurement-kind: selectivity ratio

>>> print(df.to_string())
                    structure_smiles_string  measured
0  CN(C)c1ccc2c(ccc(/C=C/c3cc(Cl)ccc3O)[n+]2C)c1      9.72
1  Cc1cc(/C=C/c2ccc3cc(N(C)C)ccc3[n+]2C)c(C)n1-c1ccccc1      1.73
2  CN(C)c1ccc2c(ccc(/C=C/c3ccccc3[N+](=O)[O-])[n+]2C)c1      1.47
3  CN(C)c1ccc2c(ccc(/C=C/c3c[nH]c4ccccc34)[n+]2C)c1      3.64
4  CN(C)c1ccc2c(ccc(/C=C/c3cccc(C#N)c3)[n+]2C)c1       3.5

---

# measurement-notes: Selectivity index, ratio of IC50 for CHOK1 cells to IC50 for Plasmodium falciparum 3D7
# Format: toxicity
# study-conditions: hamster, CHO-K1 cells; read-out: Ratio IC50
measurement-kind: selectivity ratio

                    structure_smiles_string  measured
0  Cc1cc(/C=C/c2ccc3cc(N(C)C)ccc3[n+]2C)c(C)n1-c1ccccc1        14
1  CN(C)c1ccc2c(ccc(/C=C/c3ccc(C#N)cc3)[n+]2C)c1       553
2  CN(C)c1ccc2c(ccc(/C=C/c3ccc[nH]3)[n+]2C)c1      50.5
3  Cc1cc(/C=C/c2ccc3cc(N(C)C)ccc3[n+]2C)c(C)n1-c1ccccn1      66.2
4  CN(C)c1ccc2c(ccc(/C=C/c3ccccc3)[n+]2C)c1       467
